Sourced from patent US9988341B2

# Tested on: Mtb CDC1551 Mtb::lux
# TEST_DETAILS: microbe, parasite or virus in culture
# Format: cell-based, M. tuberculosis
# RECORDED_CONDITIONS: Mycobacterium tuberculosis, 120 h; 50% reduction in luminescence signal compared to controls; 5 days
Readings of IC50 for the listed compounds

- SMILES_STRUCTURE: "CCCC[C@@H](CN[C@H](CN)CCCCNC)NCc1cccc2ccccc12"
  IC50: "6.8 µM"
- SMILES_STRUCTURE: "CCCC[C@@H](CN[C@H](CN)CCN)NCc1cccc2ccccc12"
  IC50: "8.4 µM"
- SMILES_STRUCTURE: "CCCC[C@@H](CN[C@@H](CN)CCCCNC)NCc1cccc2ccccc12"
  IC50: "3.3 µM"

====

# TARGET_ENTITY: UniProtKB P11388
# Sequence (P11388 whole entry): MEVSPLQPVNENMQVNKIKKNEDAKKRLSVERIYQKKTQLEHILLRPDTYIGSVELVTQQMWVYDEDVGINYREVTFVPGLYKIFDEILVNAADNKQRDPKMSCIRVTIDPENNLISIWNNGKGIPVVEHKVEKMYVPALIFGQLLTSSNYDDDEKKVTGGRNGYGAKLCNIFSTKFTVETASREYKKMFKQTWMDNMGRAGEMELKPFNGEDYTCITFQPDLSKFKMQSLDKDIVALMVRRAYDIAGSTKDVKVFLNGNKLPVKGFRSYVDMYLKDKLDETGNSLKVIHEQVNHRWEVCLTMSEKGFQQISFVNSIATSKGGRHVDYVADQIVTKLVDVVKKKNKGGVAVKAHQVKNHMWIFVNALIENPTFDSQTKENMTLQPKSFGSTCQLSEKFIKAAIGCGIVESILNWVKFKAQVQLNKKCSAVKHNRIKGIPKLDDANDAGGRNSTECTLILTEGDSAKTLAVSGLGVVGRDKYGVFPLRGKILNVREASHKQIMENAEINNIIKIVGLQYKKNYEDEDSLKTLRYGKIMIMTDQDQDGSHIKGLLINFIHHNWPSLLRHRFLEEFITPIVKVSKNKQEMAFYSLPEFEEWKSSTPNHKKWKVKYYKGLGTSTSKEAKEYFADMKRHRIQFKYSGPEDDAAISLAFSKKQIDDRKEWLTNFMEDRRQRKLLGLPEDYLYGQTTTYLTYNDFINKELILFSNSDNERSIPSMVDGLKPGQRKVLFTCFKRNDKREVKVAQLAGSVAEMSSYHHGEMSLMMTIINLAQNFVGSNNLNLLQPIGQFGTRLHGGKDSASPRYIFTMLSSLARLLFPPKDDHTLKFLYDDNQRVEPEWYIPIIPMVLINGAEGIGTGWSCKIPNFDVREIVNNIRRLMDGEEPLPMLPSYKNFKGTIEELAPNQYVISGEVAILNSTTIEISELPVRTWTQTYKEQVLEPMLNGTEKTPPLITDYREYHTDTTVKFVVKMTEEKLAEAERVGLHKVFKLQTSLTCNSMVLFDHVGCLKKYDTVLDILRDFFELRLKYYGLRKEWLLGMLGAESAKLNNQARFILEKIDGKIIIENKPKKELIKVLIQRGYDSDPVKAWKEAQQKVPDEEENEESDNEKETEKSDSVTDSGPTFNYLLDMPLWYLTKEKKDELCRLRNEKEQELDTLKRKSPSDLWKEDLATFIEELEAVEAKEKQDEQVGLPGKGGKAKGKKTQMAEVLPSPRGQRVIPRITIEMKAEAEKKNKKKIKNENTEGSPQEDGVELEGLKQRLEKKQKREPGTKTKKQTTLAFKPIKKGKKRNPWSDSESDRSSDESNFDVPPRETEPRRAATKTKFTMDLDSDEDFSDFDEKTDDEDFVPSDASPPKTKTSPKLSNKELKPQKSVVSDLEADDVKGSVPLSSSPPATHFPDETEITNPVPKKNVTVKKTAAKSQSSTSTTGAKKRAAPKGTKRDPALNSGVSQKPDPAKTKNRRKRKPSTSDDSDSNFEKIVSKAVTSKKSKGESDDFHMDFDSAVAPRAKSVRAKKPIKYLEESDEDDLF

- COMPOUND: "CNCCC[C@H](CN)NC[C@@H](CCCNC(=N)N)NCCc1cccc2ccccc12 [Compound 2580-15]"
  IC50: "> 90 µM"
- COMPOUND: "CNCCC[C@@H](CN[C@@H](CN)Cc1ccc2ccccc2c1)NCCc1cccc2ccccc12 [Compound 2580-33]"
  IC50: "> 85 µM"
- COMPOUND: "CCCC[C@@H](CN[C@@H](CN)CCCCNC)NCc1cccc2ccccc12 [Compound 2471-36]"
  IC50: "> 160 µM"
- COMPOUND: "CCC[C@H](CN)NC[C@@H](CCCNC(=N)N)NCCc1cccc2ccccc12 [Compound 2580-3]"
  IC50: "> 80 µM"
- COMPOUND: "CCCC[C@H](CN[C@@H](CN)CCCNC)NCCc1cccc2ccccc12 [Compound 2580-18]"
  IC50: "> 100 µM"
- COMPOUND: "CNCCC[C@H](CN)NC[C@@H](Cc1ccc2ccccc2c1)NCCc1cccc2ccccc12 [Compound 2580-24]"
  IC50: "> 85 µM"

====

# TARGET_ENTITY: M. tuberculosis topoisomerase I (Mycobacterium tuberculosis, UniProt P9WG49)
# Sequence (P9WG49 whole entry): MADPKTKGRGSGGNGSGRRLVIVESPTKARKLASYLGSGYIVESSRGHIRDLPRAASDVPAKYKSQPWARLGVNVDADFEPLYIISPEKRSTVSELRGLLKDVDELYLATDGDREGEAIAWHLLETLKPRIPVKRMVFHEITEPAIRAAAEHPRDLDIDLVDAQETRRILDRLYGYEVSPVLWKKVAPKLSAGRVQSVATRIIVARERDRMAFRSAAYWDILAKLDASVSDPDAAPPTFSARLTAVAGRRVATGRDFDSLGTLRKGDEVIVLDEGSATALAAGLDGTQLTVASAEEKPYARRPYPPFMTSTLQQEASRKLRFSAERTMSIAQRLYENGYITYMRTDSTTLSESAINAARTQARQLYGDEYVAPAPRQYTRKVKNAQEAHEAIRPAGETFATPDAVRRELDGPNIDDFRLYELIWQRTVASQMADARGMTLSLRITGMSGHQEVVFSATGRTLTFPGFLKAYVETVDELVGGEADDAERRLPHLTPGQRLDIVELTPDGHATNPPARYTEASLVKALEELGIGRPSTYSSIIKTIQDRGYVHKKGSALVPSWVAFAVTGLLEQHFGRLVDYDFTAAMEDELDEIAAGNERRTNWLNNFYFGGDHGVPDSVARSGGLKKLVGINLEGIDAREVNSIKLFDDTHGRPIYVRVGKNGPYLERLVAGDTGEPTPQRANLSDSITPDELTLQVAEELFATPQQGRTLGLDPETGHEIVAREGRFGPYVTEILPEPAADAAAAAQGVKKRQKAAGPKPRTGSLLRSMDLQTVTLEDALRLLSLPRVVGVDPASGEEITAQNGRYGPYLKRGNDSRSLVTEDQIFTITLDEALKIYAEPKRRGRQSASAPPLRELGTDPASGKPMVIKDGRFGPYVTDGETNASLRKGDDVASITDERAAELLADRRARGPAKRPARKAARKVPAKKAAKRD
# TEST_DETAILS: biochemical
# RECORDED_CONDITIONS: Table 6; read-out: IC50 M. tuberculosis topoisomerase I
pIC50: −log10 of the molar value.

- SMILES_STRUCTURE: "CNCCC[C@H](CN)NC[C@@H](Cc1ccc2ccccc2c1)NCCc1cccc2ccccc12"
  pIC50: 5.10
- SMILES_STRUCTURE: "CNCCC[C@H](CN)NC[C@@H](CCCNC(=N)N)NCCc1cccc2ccccc12"
  pIC50: 6.14
- SMILES_STRUCTURE: "CCCC[C@H](CN[C@@H](CN)CCCNC)NCCc1cccc2ccccc12"
  pIC50: 5.49
- SMILES_STRUCTURE: "CNCCC[C@@H](CN[C@@H](CN)Cc1ccc2ccccc2c1)NCCc1cccc2ccccc12"
  pIC50: 5.10
- SMILES_STRUCTURE: "CCC[C@H](CN)NC[C@@H](CCCNC(=N)N)NCCc1cccc2ccccc12"
  pIC50: 5.22

====

# TARGET_ENTITY: E. coli DNA gyrase (Escherichia coli, UniProt P0AES4+P0AES6)
# Construct: purchased New England BioLabs
# TEST_DETAILS: DNA gyrase supercoiling inhibition assay
# Assay type: biochemical
pIC50: −log10 of the molar value.

- COMPOUND: "CNCCC[C@H](CN)NC[C@@H](Cc1ccc2ccccc2c1)NCCc1cccc2ccccc12 [Compound 2580-24]"
  TARGET_ENTITY: "E. coli DNA gyrase (Escherichia coli, UniProt P0AES4+P0AES6)"
  pIC50: "< 4.07"
- COMPOUND: "CNCCC[C@@H](CN[C@@H](CN)Cc1ccc2ccccc2c1)NCCc1cccc2ccccc12 [Compound 2580-33]"
  TARGET_ENTITY: "E. coli DNA gyrase (Escherichia coli, UniProt P0AES4+P0AES6)"
  pIC50: "< 4.07"
- COMPOUND: "CCCC[C@@H](CN[C@@H](CN)CCCCNC)NCc1cccc2ccccc12 [Compound 2471-36]"
  TARGET_ENTITY: "E. coli DNA gyrase (Escherichia coli, UniProt P0AES4+P0AES6)"
  pIC50: "< 3.80"
- COMPOUND: "CCCC[C@@H](CN[C@H](CN)CCN)NCc1cccc2ccccc12 [Compound 2471-24]"
  TARGET_ENTITY: "E. coli DNA gyrase (Escherichia coli, UniProt P0AES4+P0AES6)"
  pIC50: "< 3.80"
